quantity-measured: melting point

Lab note: each molecule below needs its melting point filled in.
1. CC(=O)C1=C(C)Nc2nc(N)nc(N)c2C1c1ccccc1Cl (stereo not given)
2. CCOC(=O)NC(=S)Nc1ccsc1C(=O)OC
3. CCCCCCOC(C)c1ccc(-c2ccc(OCc3ccccc3)cc2)cc1 (single isomer, unassigned; (+))
4. O=C(c1ccc([N+](=O)[O-])cc1)N1CCN(CCc2ccc(Cl)cc2)CC1
5. Cc1cc(-c2ccco2)ccc1C(=O)CC(=O)C(F)(F)F
6. Cc1nccc2c3ccc(OCc4cccc(F)c4)cc3n(Cc3cccc(F)c3)c12
7. CCOCc1nc2c(N)nc3cc(OCCN)ccc3c2n1CC(C)(C)O

1. 254 °C
2. 165 to 167 °C
3. 61 to 63 °C
4. 109 to 110 °C
5. 135 to 137 °C
6. 148 °C
7. 163 to 165 °C

----------
quantity-measured: melting point

# input molecule: O=C1CN2C(=O)N(c3cc(Cl)nc(Cl)c3)C(=O)[C@@]2(Cc2ccc(OC(F)(F)F)cc2)C1 ; wanted: its melting point 166 °C

What do we get for c1ccc(COCCNc2ccc(Nc3ncnc4cc(-c5ccccc5)sc34)cc2)cc1 ? 201 to 203 °C

Can you handle COc1cc(Cl)cc(Cl)c1C=O next? 110 to 111 °C

Quick one: Cc1ccc(C)n1CCNC(=O)Nc1ccc(C(=O)O)cc1 248 to 250 °C

Input CCCCNC(=O)C(C)(C)n1cc(C)c(-c2ccccc2)n1 53 to 57 °C

Working through the 5 molecules below one at a time, give melting point for each.
1. O[C@@H]1c2cc3c(cc2CC[C@H]1NCCc1ccccc1)CCO3 (relative stereo)
2. Clc1ccc(Cn2cnc3c(-c4ccco4)ncnc32)cc1Cl
3. O=C(COc1cccc(Cl)c1)NCCO[N+](=O)[O-]
4. Cc1c(C)c2c(c(C)c1NC(=O)CC(C)(C)C)[C@@H](c1ccc(C(C)C)cc1)[C@H](C)O2 (relative stereo)
5. CC1=c2cc(Br)ccc2=NC1=O

144 to 148 °C
183 to 185 °C
62 to 64 °C
143 to 144 °C
119 to 120 °C

----------
Provide the reported melting point of each item.

Which melting point value is on record for CN(C)C=CC=C(C#N)c1cccnc1 ? 117 to 120 °C

Now give it for CCOc1ccc(-n2c(C(C)N(Cc3cccnc3)C(=O)OC(C)(C)C)nc3ccccc3c2=O)cc1 (stereo not given) too. 67.5 °C

Lookup COc1ccc(S(=O)(=O)Nc2ccccc2NC(=S)c2ccc(F)cc2)cc1 155 to 156 °C

Repeat with O=C1NC(=O)C(Sc2ccc(Cl)cc2)S1 (stereo not given) 109 to 110 °C

We next turn to a different molecule, shown below.
Param item = CCOC(=O)CCC1(NC(=O)c2ccc(Cl)c(Cl)c2)C(=O)Nc2ccccc21 (stereo not given) ; retrieve measured melting point. 227 to 228 °C

----------
Please provide measured melting point for the entries that follow.

For each of the compounds below, note its melting point.
1. CCOC(=O)c1[nH]c(C)c(C)c1OCCCCCl
2. CCOC(=O)N1CCN(C2Cc3cc(C)ccc3Sc3ccccc32)CC1 (stereo not given)
3. CSC(=Nc1ccccc1C(=O)NC(C)C)NC(=O)c1ccccc1
4. C[C@]1(COc2ccc(N3CCC(OCc4ccc(C(F)(F)F)cc4)CC3)cc2)Cn2cc([N+](=O)[O-])nc2O1
5. CCOC(=O)NC(=S)NCCOCC1=C(C(=O)OCC)C(c2cccc(Cl)c2Cl)C(C(=O)OC)=C(C)N1 (stereo not given)
6. CCCCCCCCNC(=O)c1cnc2cccc(C)n2c1=O
7. CN1Cc2c(-c3noc(CN)n3)ncn2-c2sccc2C1=O
8. O=c1cc(-c2ccncc2)nc2n1CC(O)CN2CCCc1ccccc1F (stereo not given)

1: 58 to 60 °C; 2: 96 to 98 °C; 3: 117 to 120 °C; 4: 217 to 220 °C; 5: 144 °C; 6: 108 to 110 °C; 7: 181 to 183 °C; 8: 305 to 307 °C

# batch size: 2; output melting point per entry
1. CCCc1ccc2c(c1)C1(O)C(=O)c3ccccc3C1(O)O2 (stereo not given)
2. O=C(O)CNc1ccc(Cl)cc1C(=O)O

1: 126 to 127 °C; 2: 182 to 183 °C

Provide melting point for all items below, preserving their order.
1. NS(=O)(=O)Oc1ccc(Cl)cc1
2. COC(=O)CCc1cc(O)cc2cc(-c3ccc(O)cc3)oc12

["103 to 104 °C", "167 to 170 °C"]

Count: 6. Required value per item: melting point.
1. CC1(NC(=O)C(F)(F)F)CN(c2c(F)cc3c(=O)c(C(=O)O)cn(CCF)c3c2F)C1
2. Nc1cccc(COc2cccc3cccnc23)c1
3. C=Cc1ccc(-c2nc(C)c3c(n2)sc2c(OCC)nc(N4CCNCC4)nc23)cc1
4. Cc1ccc(CCOc2ccc(NC(=O)N(C)C)cc2)nc1
5. COc1cc(F)c(-c2ccc3nc(C(=O)NC(Cc4ccc(OCc5ccccc5)cc4)C(=O)O)cn3c2)c(F)c1 (stereo not given)
6. COc1cc(C(=O)N2CCC(CCOS(C)(=O)=O)(c3ccc(Cl)c(Cl)c3)C2)cc(OC)c1OC (stereo not given)

["205 to 215 °C", "146 to 147 °C", "165 to 166 °C", "148 to 150 °C", "219 °C", "64 to 66 °C"]

// each compound listed below needs its melting point
1. O=C(Cc1cccc2ccccc12)N[C@H](Cc1ccc(C(F)(F)F)cc1)[C@@H](O)c1ccc(F)cc1 (racemic)
2. COc1nc(OC)c(C(C)C)c(C(=O)c2cc(C)cc(Cl)c2)n1

186 to 187 °C
119 to 120 °C
